- ASSAY INFO: A CellTox Green Cytotoxicity Assay to monitor cytotoxicity in HEK293 cells - 32 hour (AID 1224881); also: nearly all actives have a fitted effect of over 40% in size
- CONDITION NOTES: CellTox Green fluorescence; series mostly up to 76.8 µM
Results filed as inconclusive are left out. Calls of active or inactive are those of the source. Calls follow the shape of the dose curve; as a rule, active = well fitted activation curve with a large enough effect in the repeat runs; inconclusive = weak or mixed curves; inactive = flat fitted curve, though single readings scatter.
Possible outcomes: label 1 = active, label 0 = inactive

CCC(OCCCOC)OC(C)=O (configuration not stated)    label 0
Cc1ccc2c(Br)cc(Br)c(O)c2n1    label 0
C=C(C)CCCC(C)CCO (configuration not stated)    label 0
CC(=O)OCC(=O)NCCCOc1cccc(CN2CCCCC2)c1    label 0
CC(=O)Oc1ccc([N+](=O)[O-])cc1CCl    label 0
CN1CCCC(CC2c3ccccc3Sc3ccccc32)C1 (configuration not stated)    label 1
CCOc1ccccc1O[C@H](c1ccccc1)[C@H]1CNCCO1    label 0
CN1C(=O)c2ccccc2C1=O    label 0
CCOc1ccc(Cc2nccc3cc(OCC)c(OCC)cc23)cc1OCC    label 0
C/C=C/C=C/C=O    label 0
C[C@H]1c2cccc(O)c2C(O)=C2C(=O)[C@]3(O)C(O)=C(C(N)=O)C(=O)[C@@H](N(C)C)[C@@H]3[C@@H](O)[C@@H]21    label 0
C/C=C(/C(=C/C)c1ccc(O)cc1)c1ccc(O)cc1    label 0
O=C1CCCCCCCCCCOCCCCO1    label 1
CCOC(=O)c1ccc(C#Cc2ccc3c(c2)C(C)(C)CCS3)nc1    label 0
O=C1NC(=O)c2cc([N+](=O)[O-])ccc21    label 0
OCCN1CCN(CCCN2c3ccccc3Sc3ccc(Cl)cc32)CC1    label 1
CC1CC(C)C(=O)C1=O (configuration not stated)    label 0
OC(CCN1CCCC1)(c1ccccc1)C1CCCCC1 (configuration not stated)    label 0
CCC(C)(C)OC    label 0
CCCCCC#CC(=O)OC    label 0
COc1cc(C(=O)NCCCCCC(=O)O)cc(OC)c1OC    label 0
Cc1cc(C)cc(N)c1    label 0
CC(O)c1ccccc1 (configuration not stated)    label 0
Cc1ccc(Cl)c(Nc2ccccc2C(=O)O)c1Cl    label 0
COc1ccc(OC(=O)N(CC(=O)O)Cc2ccc(OCCc3nc(-c4ccccc4)oc3C)cc2)cc1    label 0
CC[N+](CC)(CCNC(=O)C(=O)NCC[N+](CC)(CC)Cc1ccccc1Cl)Cc1ccccc1Cl    label 0
O=C1NCCN1CCO    label 0
